I'd appreciate it if you could supply MIC values for the items below.
# Test system: Staphylococcus aureus
# test.summary: Antibacterial activity against methicillin-resistant Staphylococcus aureus CCARM 3167 clinical isolate after 24 hrs by broth microdilution method
# Type: functional
# reported.conditions: CCARM 3167, 24 h

1. O=C1NC(=S)NC(=O)C1=Cc1ccc(/C=C/C(=O)c2cccc(Cl)c2)cc1	> 64 µg/mL
2. O=C1NC(=S)NC(=O)C1=Cc1ccc(/C=C/C(=O)c2ccc(F)cc2)cc1	> 64 µg/mL
3. O=C1NC(=S)NC(=O)C1=Cc1ccc(/C=C/C(=O)c2ccc(Cl)cc2)cc1	> 64 µg/mL

I would be grateful if you could provide MIC for each of the following entries.
1. O=C(O)[C@H](Cc1ccccc1)N1C(=O)/C(=C\c2ccc(OCc3ccc(F)cc3)cc2)SC1=S
2. O=Cc1ccc(/C=C/C(=O)c2ccc(Cl)cc2Cl)cc1
3. COc1ccc(C(=O)/C=C/c2ccc(/C=C3\SC(=S)N([C@@H](Cc4ccccc4)C(=O)O)C3=O)cc2)cc1
4. O=C1NC(=S)NC(=O)C1=Cc1ccc(/C=C/C(=O)c2ccccc2Cl)cc1
5. Cc1ccc(C(=O)/C=C/c2ccc(/C=C3\SC(=S)N([C@@H](Cc4ccccc4)C(=O)O)C3=O)cc2)cc1
6. O=Cc1ccc(OCc2ccc(Br)cc2)cc1
7. O=C(O)[C@H](Cc1ccccc1)N1C(=O)/C(=C\c2ccc(OCc3cccc(F)c3)cc2)SC1=S
8. O=C1NC(=S)S/C1=C/c1ccc(/C=C/C(=O)c2ccccc2Cl)cc1

["8 µg/mL", "> 64 µg/mL", "4 µg/mL", "> 64 µg/mL", "2 µg/mL", "> 64 µg/mL", "8 µg/mL", "> 64 µg/mL"]

Just for reference, ChEMBL document CHEMBL2086385 is where these values come from.
